assay.system: CK1ε (Homo sapiens, UniProt P49674)
Sequence (P49674 whole entry): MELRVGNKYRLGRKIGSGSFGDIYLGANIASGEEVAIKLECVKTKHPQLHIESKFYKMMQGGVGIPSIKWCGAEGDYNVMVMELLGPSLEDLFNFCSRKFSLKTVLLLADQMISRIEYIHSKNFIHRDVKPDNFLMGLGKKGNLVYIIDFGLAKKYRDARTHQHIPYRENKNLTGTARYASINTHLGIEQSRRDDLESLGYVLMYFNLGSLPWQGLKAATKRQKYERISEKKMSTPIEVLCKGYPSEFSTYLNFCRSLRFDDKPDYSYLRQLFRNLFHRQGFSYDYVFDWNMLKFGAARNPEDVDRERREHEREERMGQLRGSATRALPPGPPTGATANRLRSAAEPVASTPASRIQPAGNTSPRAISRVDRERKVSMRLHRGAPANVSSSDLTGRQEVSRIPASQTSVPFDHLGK
assay.protocol: CK1ε kinase assay (Caliper LabChip electrophoretic separation of fluoresceinated peptide substrate and product)
Assay type: biochemical
protocol.conditions: 200 pM CK1ε, 50 μM ATP, 1.5 μM peptide, 22 hours at room temperature; read-out: CK1ε IC50 range
pIC50: −log10 of the molar value.
This listing pairs compounds with measured pIC50.

input: I'm curious: which pIC50 was measured for CC1(NC(=O)N2CCn3nc(-c4ccc(Cl)c(Cl)c4)c(C(N)=O)c3C2)CC(F)(F)C1 [Compound 297] tested on CK1ε (Homo sapiens, UniProt P49674)?
output: 8.00 to 11.00

input: Can you look up pIC50 on CK1ε (Homo sapiens, UniProt P49674) for NC(=O)c1c(-c2cccc(Cl)c2)nn2c1CN(C(=O)NC13CCCC(CCC1)C3)CC2 [Compound A84] ?
output: 8.00 to 11.00

input: Request body: readout pIC50, system CK1ε (Homo sapiens, UniProt P49674), query NC(=O)c1c(-c2cccc(Cl)c2)nn2c1CN(C(=O)NC1CC(F)(F)C1)CC2CF (single isomer, unassigned) [Compound A113] . Return the value.
output: 8.00 to 11.00

input: Value wanted: pIC50 (CK1ε (Homo sapiens, UniProt P49674)) of entry CSc1cccc(-c2nn3c(c2C(N)=O)CN(C(=O)NC(C)(C)C)CC3)c1 [Compound 150]
output: 7.00 to 8.00

input: GET /values?readout=pIC50&system=CK1ε (Homo sapiens, UniProt P49674)&item= NC(=O)c1c(-c2cccc(Cl)c2)nn2c1CN(C(=O)N[C@@H]1C[C@@H]3[C@H](C1)C3(F)F)CC2 [Compound 183]
output: 8.00 to 11.00

input: What reported pIC50 corresponds to CC(C)(C)NC(=O)N1CCn2nc(-c3ccsc3)c(C(N)=O)c2C1 [Compound 121] on CK1ε (Homo sapiens, UniProt P49674)?
output: 5.70 to 7.00

input: Look up pIC50 with CK1ε (Homo sapiens, UniProt P49674) for this compound: CC(C)(NC(=O)N1CCn2nc(-c3cccc(Cl)c3)c(C(N)=O)c2C1)c1ccc(C#N)cc1 [Compound 173]
output: 8.00 to 11.00

input: Requested read-out pIC50, target or system CK1ε (Homo sapiens, UniProt P49674), entry CC(C)(NC(=O)N1CCn2nc(-c3cccc(F)c3)c(C(N)=O)c2C1)c1ccccc1 [Compound 25]
output: 7.00 to 8.00

# credit: patent US9273058B2
